FYI, the data here is from ChEMBL document CHEMBL1201862.

What IC50 was measured for each of the following?
target: Sentrin-specific protease 1 (Homo sapiens); experiment: Dose response confirmation of small molecule inhibitors of the catalytic domain of the SUMO protease, SENP1 in a FRET assay.; format: functional; conditions: read-out: IC50_Mean
Sequence (Q9P0U3 whole entry, the tested form may be a part): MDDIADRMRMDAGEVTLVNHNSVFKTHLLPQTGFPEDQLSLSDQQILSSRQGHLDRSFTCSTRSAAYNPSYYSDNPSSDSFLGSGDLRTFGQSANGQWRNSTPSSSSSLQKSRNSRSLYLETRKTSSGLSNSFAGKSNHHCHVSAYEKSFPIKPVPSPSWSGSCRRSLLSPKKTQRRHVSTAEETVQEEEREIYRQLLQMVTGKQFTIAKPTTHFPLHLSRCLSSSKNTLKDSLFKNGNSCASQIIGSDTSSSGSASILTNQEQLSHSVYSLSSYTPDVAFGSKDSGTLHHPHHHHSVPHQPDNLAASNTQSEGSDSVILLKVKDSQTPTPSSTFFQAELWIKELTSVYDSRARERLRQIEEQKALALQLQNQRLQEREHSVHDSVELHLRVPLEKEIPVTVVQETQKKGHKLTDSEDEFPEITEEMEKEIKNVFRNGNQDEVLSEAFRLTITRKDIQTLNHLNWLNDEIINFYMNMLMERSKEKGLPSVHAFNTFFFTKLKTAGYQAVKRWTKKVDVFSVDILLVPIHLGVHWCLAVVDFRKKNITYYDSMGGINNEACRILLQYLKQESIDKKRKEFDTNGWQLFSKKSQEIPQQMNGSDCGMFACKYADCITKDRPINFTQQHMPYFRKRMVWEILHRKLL
The source made the active and inactive calls.

Consider the worked cases shown below.
>>> recorded_measurement("COc1ccccc1C1C2=C(N=c3s/c(=C/c4cccc(OCC(=O)O)c4)c(=O)n31)c1ccccc1CC2 (centres undefined)")
"25.4 µM (inactive)"
>>> recorded_measurement("O=C1C=C(c2cccc(Cl)c2O)C[C@@H](c2ccc(Cl)cc2)C1")
"1.15 µM (active)"
>>> recorded_measurement("CCOc1cc(/C=C2\\N=C3CCCCCN3C2=O)ccc1O")
"7.67 µM (active)"

*Q* Test system Sentrin-specific protease 1 (Homo sapiens); read-out IC50; what value for c1cc(Nc2cccc3nccnc23)c2nccnc2c1 ?
*A* 24.5 µM (inactive)

----------
target: Aurora kinase A (Homo sapiens, UniProt O14965); assay type: functional;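 note: value from the Navigating the Kinome kinase panel profiling, panel entry STK6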
Sequence (O14965 whole entry): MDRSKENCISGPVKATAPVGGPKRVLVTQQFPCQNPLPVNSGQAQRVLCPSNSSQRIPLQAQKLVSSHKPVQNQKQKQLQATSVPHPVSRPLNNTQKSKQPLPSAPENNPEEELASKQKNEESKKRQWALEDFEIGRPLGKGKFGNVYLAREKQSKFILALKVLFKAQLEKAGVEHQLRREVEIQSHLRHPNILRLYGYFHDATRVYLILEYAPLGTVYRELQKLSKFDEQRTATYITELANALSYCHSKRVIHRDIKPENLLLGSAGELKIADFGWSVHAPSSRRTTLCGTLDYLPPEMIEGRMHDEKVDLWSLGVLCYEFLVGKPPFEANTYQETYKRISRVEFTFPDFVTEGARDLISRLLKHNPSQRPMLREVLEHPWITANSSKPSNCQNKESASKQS
The source made the active and inactive calls.
I would appreciate it if you answered using one of these outcomes: active, inactive

// below: answered compounds
>>> group_label("O=C(NCCc1cccs1)N1CC=C(c2c[nH]c3ncccc23)CC1")
"inactive"
>>> group_label("O=S(=O)(Nc1ccc2c(c1)C(=NO)c1ccccc1-2)c1cccc(Cl)c1")
"inactive"

*Q* Please share the test call associated with NC1CCN(C(=O)c2ccc3c(c2)[nH]c(=O)c2cccn23)CC1 .
*A* inactive

*Q* Please share the test call associated with CC(Nc1cncc(-n2cnc3ccccc32)n1)c1ccc(F)cc1 (centres undefined) .
*A* active

----------
assay: viability of PTEN-deleted HCT116 cells – cell-based, HCT116 PTEN knockout, dose response (AID 1047); assay type: functional;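 note: HCT116 colon tumor cells with PTEN knocked out; cells exposed to compound for 60 hours before readout; potency for loss of cell viability measured by luminescence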
The source made the active and inactive calls.
What EC50 was measured for each of the following?

>>> recorded_measurement("O=C(CSc1nc(-c2ccco2)cc(C(F)(F)F)n1)Nc1ccc(C(=O)N2CCCCC2)cc1")
"62.7 µM (active)"

Value sought for every listed compound: EC50.
1. CN1CCN(C2=Cc3cc(Cl)ccc3Sc3cc(F)ccc32)CC1
2. C=C(C)Cn1c(SCC(=O)N/N=C/c2c(O)ccc3ccccc23)nc2ccccc2c1=O
3. CCC(C)NCC(=O)Nc1ccc(-c2nc3cc(NC(=O)CNC(C)CC)ccc3o2)cc1 (centres undefined)

*A*
1: 9.39 µM (active); 2: 19.5 µM (active); 3: 4.19 µM (active)

----------
What EC50 was measured for each of the following?
experiment: luciferase reporter signal suppression in cells – H4 neuroglioma cells, luminescence, dose response (AID 1990); format: functional, cell-based
Activity calls are given as the source filed them.

Consider the worked cases shown below.
>>> recorded_measurement("O=C(Nc1nc2cc3c(cc2s1)OCO3)C1=COCCO1")
"2.39 µM (inconclusive)"
>>> recorded_measurement("O=C(NNC(=O)C12CC3CC(CC(C3)C1)C2)c1ccccc1F")
"17.7 µM (active)"
>>> recorded_measurement("O=C1NC(=O)N(CCC2=CCCCC2)C(=O)/C1=C\\Nc1cccc(F)c1")
"> 120 µM (not active)"
>>> recorded_measurement("COc1c(Br)cc([N+](=O)[O-])c(OC)c1C(=O)NC(=O)Nc1cc(Cl)cc(Cl)c1")
"> 120 µM (not active)"
>>> recorded_measurement("CCC1=Nc2cc(C(=O)NCc3ccco3)ccc2Sc2ccc(C)cc21")
"0.25 µM (active)"

API: the following record is the query input.
*Q* Which measured EC50 value corresponds to COc1cc2c(cc1OC)-c1cc(NC3CCCCC3)nc(=O)n1CC2 ?
*A* 20 µM (active)
